// data source = patent EP2914280B1

Target: hSSTR2 (Homo sapiens, UniProt P30874)
Construct: host or cells: 'Cells expressing hSSTR2'
Sequence (P30874 whole entry): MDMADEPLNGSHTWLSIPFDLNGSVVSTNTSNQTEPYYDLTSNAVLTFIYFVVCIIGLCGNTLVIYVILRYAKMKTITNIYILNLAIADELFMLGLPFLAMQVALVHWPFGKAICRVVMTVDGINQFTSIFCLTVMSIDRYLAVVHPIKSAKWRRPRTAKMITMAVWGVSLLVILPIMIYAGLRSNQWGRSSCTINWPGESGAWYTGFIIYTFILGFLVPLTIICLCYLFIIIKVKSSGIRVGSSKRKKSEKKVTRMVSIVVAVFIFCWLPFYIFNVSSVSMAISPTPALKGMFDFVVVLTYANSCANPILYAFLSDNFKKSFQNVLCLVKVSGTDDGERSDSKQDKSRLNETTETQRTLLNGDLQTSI
Assay: Somatostatin receptor radioligand binding assay (hSSTR2);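 note: radioligand displacement on membranes of CHO-K1 cells stably transfected with human SSTR2, specific binding taken as total minus binding left with 1000 nM SRIF-14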
Settings: CHO-K1 cell membranes; 0.05 nM [125I-Tyr]-seglitide; 60 minutes at 25°C; read-out: hSSTR2 Ki (nM) ± SEM
Numbered stars: 1 amine (or outer) side, 2 acyl side, 3 side chain; on linkers, the order of the positions; unused ones are H or OH. Bridge positions count the residues as written; N and C are the ends. Square brackets hold non-standard residues; d marks the D form. Peptide text beside a SMILES is read from it. X1 = CN1C[C@H](CSCCN(CCSC[C@@H]2C[C@@H]3c4cccc5[nH]cc(c45)C[C@H]3N(C)C2)[C@H](CCCCN[*:2])C(=O)[*:1])C[C@@H]2c3cccc4[nH]cc(c34)C[C@H]21; 4Pal = N[C@@H](Cc1ccncc1)C(=O)O
Rule for this label: Y means Ki is less than 0.2 nM; N means Ki is at least 0.2 nM.

Take a look at these entries with their results.
COMPOUND	CAT
C[C@@H](O)[C@@H]1NC(=O)[C@H](CCCCN)NC(=O)[C@@H](Cc2c[nH]c3ccccc23)NC(=O)[C@H](Cc2ccncc2)NC(=O)[C@H](Cc2ccccc2)NC(=O)[C@H](CCCNC(=N)N)NC(=O)[C@H](N(CCSC[C@@H]2C[C@@H]3c4cccc5[nH]cc(c45)C[C@H]3N(C)C2)CCSC[C@@H]2C[C@@H]3c4cccc5[nH]cc(c45)C[C@H]3N(C)C2)CCCCNC(=O)[C@H](Cc2ccc(O)cc2)NC1=O [Compound 35] (RF[4Pal][dW]KTY; linker N-C via X1)	Y
C[C@@H](O)[C@@H]1NC(=O)[C@H](CCCCN)NC(=O)[C@@H](Cc2c[nH]c3ccccc23)NC(=O)[C@H](Cc2ccccc2)NC(=O)[C@H](Cc2ccccc2)NC(=O)[C@H](CCCNC(=N)N)NC(=O)[C@H](NC[C@@H](Cc2ccc(O)cc2)NC(=O)CSC[C@@H]2C[C@@H]3c4cccc5[nH]cc(c45)C[C@H]3N(C)C2)CCCCNC(=O)[C@H](Cc2ccccc2)NC1=O	N
C[C@@H](O)[C@@H]1NC(=O)[C@H](CCCCN)NC(=O)[C@@H](Cc2c[nH]c3ccccc23)NC(=O)[C@H](Cc2ccncc2)NC(=O)[C@H](Cc2ccccc2)NC(=O)[C@H](CCCNC(=N)N)NC(=O)[C@H](NC[C@H](CCCCNC(=O)CSC[C@@H]2C[C@@H]3c4cccc5[nH]cc(c45)C[C@H]3N(C)C2)NC(=O)CSC[C@@H]2C[C@@H]3c4cccc5[nH]cc(c45)C[C@H]3N(C)C2)CCCCNC(=O)[C@H](Cc2ccccc2)NC1=O	Y
C[C@@H](O)[C@@H]1NC(=O)[C@H](CCCCN)NC(=O)[C@@H](Cc2c[nH]c3ccccc23)NC(=O)[C@H](Cc2ccncc2)NC(=O)[C@H](Cc2ccccc2)NC(=O)[C@H](CCCNC(=N)N)NC(=O)[C@H](NCCS(=O)(=O)C[C@@H]2C[C@@H]3c4cccc5[nH]cc(c45)C[C@H]3N(C)C2)CCCCNC(=O)[C@H](Cc2ccc(O)cc2)NC1=O	Y

Okay, next one:
Problem: Regarding C[C@@H](O)[C@@H]1NC(=O)[C@H](CCCCN)NC(=O)[C@@H](Cc2c[nH]c3ccccc23)NC(=O)[C@H](Cc2ccccc2)NC(=O)[C@H](Cc2ccccc2)NC(=O)[C@H](CCCNC(=N)N)NC(=O)[C@H](NC[C@H](Cc2ccc(O)cc2)NC(=O)CSC[C@@H]2C[C@@H]3c4cccc5[nH]cc(c45)C[C@H]3N(C)C2)CCCCNC(=O)[C@H](Cc2ccc(F)cc2)NC1=O , kindly confirm whether its Ki is beneath 0.2 nM.
Solution: N

====

Molecular target: hSSTR2 (Homo sapiens, UniProt P30874)
Construct: host or cells: 'Cells expressing hSSTR2'
Test: Intracellular calcium mobilization assay (FLIPR Calcium 4), hSSTR2;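 note: agonist activity measured in cells expressing hSSTR2, seeded in 384-well plates, loaded with Calcium 4 dye, read-out as rise in intracellular calcium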
Type: cell-based
Numbered stars: 1 amine (or outer) side, 2 acyl side, 3 side chain; on linkers, the order of the positions; unused ones are H or OH. Bridge positions count the residues as written; N and C are the ends. Square brackets hold non-standard residues; d marks the D form. Peptide text beside a SMILES is read from it. * marks the point of attachment. X1 = CN1C[C@H](CSCCN(CCSC[C@@H]2C[C@@H]3c4cccc5[nH]cc(c45)C[C@H]3N(C)C2)[C@H](CCCCN[*:2])C(=O)[*:1])C[C@@H]2c3cccc4[nH]cc(c34)C[C@H]21; X2 = CN1C[C@H](CSCC(=O)*)C[C@@H]2c3cccc4[nH]cc(c34)C[C@H]21; Phe(4-F) = N[C@@H](Cc1ccc(F)cc1)C(=O)O; 4Pal = N[C@@H](Cc1ccncc1)C(=O)O
Returns the class for an entry based on its EC50. Class ranges: bottom = under 4 nM, middle = from 4 nM up to 10 nM, top = 10 nM and over

Problem: Given C[C@@H](O)[C@@H]1NC(=O)[C@H](CCCCN)NC(=O)[C@@H](Cc2c[nH]c3ccccc23)NC(=O)[C@H](Cc2ccncc2)NC(=O)[C@H](Cc2ccccc2)NC(=O)[C@H](CCCNC(=N)N)NC(=O)[C@H](NC[C@H](Cc2ccc(O)cc2)NC(=O)C[S+]([O-])C[C@@H]2C[C@@H]3c4cccc5[nH]cc(c45)C[C@H]3N(C)C2)CCCCNC(=O)[C@H](Cc2ccccc2)NC1=O (some centres unmarked) , name the class its EC50 places it in.
Solution: bottom

Problem: Input C[C@@H](O)[C@@H]1NC(=O)[C@H](CCCCN)NC(=O)[C@@H](Cc2c[nH]c3ccccc23)NC(=O)[C@H](Cc2ccncc2)NC(=O)[C@H](Cc2ccccc2)NC(=O)[C@H](CCCNC(=N)N)NC(=O)[C@H](NC[C@H](Cc2ccc(O)cc2)NC(=O)CS(=O)(=O)C[C@@H]2C[C@@H]3c4cccc5[nH]cc(c45)C[C@H]3N(C)C2)CCCCNC(=O)[C@H](Cc2ccccc2)NC1=O ; output its category
Solution: bottom

Problem: Record C[C@@H](O)[C@@H]1NC(=O)[C@H](CCCCN)NC(=O)[C@@H](Cc2c[nH]c3ccccc23)NC(=O)[C@H](Cc2ccccc2)NC(=O)[C@H](Cc2ccccc2)NC(=O)[C@H](CCCNC(=N)N)NC(=O)[C@H](NCCSC[C@@H]2C[C@@H]3c4cccc5[nH]cc(c45)C[C@H]3N(C)C2)CCCCNC(=O)[C@H](Cc2ccccc2F)NC1=O — which class?
Solution: top

Problem: Band assignment needed for C[C@@H](O)[C@@H]1NC(=O)[C@H](CCCCN)NC(=O)[C@@H](Cc2c[nH]c3ccccc23)NC(=O)[C@H](Cc2ccccc2)NC(=O)[C@H](Cc2ccccc2)NC(=O)[C@H](CCCNC(=N)N)NC(=O)[C@H](NC[C@H](Cc2ccc(O)cc2)NC(=O)CSC[C@@H]2C[C@@H]3c4cccc5[nH]cc(c45)C[C@H]3N(C)C2)CCCNC(=O)[C@H](Cc2ccccc2)NC1=O please.
Solution: top

Problem: GET /class?item= C[C@@H](O)[C@@H]1NC(=O)[C@H](CCCCN)NC(=O)[C@@H](Cc2c[nH]c3ccccc23)NC(=O)[C@H](Cc2ccncc2)NC(=O)[C@H](Cc2ccccc2)NC(=O)[C@H](CCCNC(=N)N)NC(=O)[C@H](N(CCSC[C@@H]2C[C@@H]3c4cccc5[nH]cc(c45)C[C@H]3N(C)C2)CCSC[C@@H]2C[C@@H]3c4cccc5[nH]cc(c45)C[C@H]3N(C)C2)CCCCNC(=O)[C@H](Cc2ccccc2)NC1=O [Compound 29] (RF[4Pal][dW]KTF; linker N-C via X1)
Solution: top

Problem: Just checking, what class would you give CC(=O)N(CCCN[C@@H]1CCCCNC(=O)[C@H](Cc2ccc(F)cc2)NC(=O)[C@H]([C@@H](C)O)NC(=O)[C@H](CCCCN)NC(=O)[C@@H](Cc2c[nH]c3ccccc23)NC(=O)[C@H](Cc2ccccc2)NC(=O)[C@H](Cc2ccccc2)NC(=O)[C@H](CCCNC(=N)N)NC1=O)C[C@@H]1C[C@@H]2c3cccc4[nH]cc(c34)C[C@H]2N(C)C1 [Compound 29A] here?
Solution: middle

Problem: // return the class label for C[C@@H](O)[C@@H]1NC(=O)[C@H](CCCCN)NC(=O)[C@@H](Cc2c[nH]c3ccccc23)NC(=O)[C@H](Cc2ccccc2)NC(=O)[C@H](Cc2ccccc2)NC(=O)[C@H](CCCNC(=N)N)NC(=O)[C@H](NCCSC[C@@H]2C[C@@H]3c4cccc5[nH]cc(c45)C[C@H]3N(C)C2)CCCCNC(=O)[C@H](Cc2ccc(F)c(F)c2)NC1=O
Solution: top

Problem: Class for C[C@@H](O)[C@@H]1NC(=O)[C@H](CCCCN)NC(=O)[C@@H](Cc2c[nH]c3ccccc23)NC(=O)[C@H](Cc2ccccc2)NC(=O)[C@H](Cc2ccccc2)NC(=O)[C@H](CCCNC(=N)N)NC(=O)[C@H](NCCSC[C@@H]2C[C@@H]3c4cccc5[nH]cc(c45)C[C@H]3N(C)C2)CCCCNC(=O)[C@H](Cc2c(F)c(F)c(F)c(F)c2F)NC1=O ?
Solution: top

Problem: # bin lookup: classify C[C@@H](O)[C@@H]1NC(=O)[C@H](CCCCN)NC(=O)[C@@H](Cc2c[nH]c3ccccc23)NC(=O)[C@H](Cc2ccccc2)NC(=O)[C@H](Cc2ccccc2)NC(=O)[C@H](CCCNC(=N)N)NC(=O)[C@H](NC[C@H](Cc2ccc(O)cc2)NC(=O)CS(=O)(=O)C[C@@H]2C[C@@H]3c4cccc5[nH]cc(c45)C[C@H]3N(C)C2)CCCCNC(=O)[C@H](Cc2ccc(F)cc2)NC1=O by its EC50
Solution: middle

Problem: Category lookup for the compound C[C@@H](O)[C@@H]1NC(=O)[C@H](CCCCN)NC(=O)[C@@H](Cc2c[nH]c3ccccc23)NC(=O)[C@H](Cc2ccccc2)NC(=O)[C@H](Cc2ccccc2)NC(=O)[C@H](CCCNC(=N)N)NC(=O)[C@H](NC(=O)CSC[C@@H]2C[C@@H]3c4cccc5[nH]cc(c45)C[C@H]3N(C)C2)CCCCNC(=O)[C@H](Cc2ccc(F)cc2)NC1=O [Compound 34] (X2-[dK]RFF[dW]KT[Phe(4-F)]; lactam 1-C)
Solution: top
